Test details: Tmax in CAnN.Cg-Foxnlnu/CrlCrlj mouse plasma at 25 mg/kg, po single dose measured up to 24 hrs by liquid chromatography tandem mass spectrometry
Type: ADME, organism-based
Reported property: Tmax

INSERT INTO results (record_smiles, reported_property, experimental_value) VALUES
  ('Cc1ccc(-n2c(=O)c(C(=O)Nc3ccc(Oc4ncnc5c4CCN(CC4CCN(C)CC4)C5)c(F)c3)cn(C3CCCC3)c2=O)nc1', 'Tmax', '2 h');

###

System name: CYP2C9 (Homo sapiens, UniProt P11712)
Sequence (P11712 whole entry): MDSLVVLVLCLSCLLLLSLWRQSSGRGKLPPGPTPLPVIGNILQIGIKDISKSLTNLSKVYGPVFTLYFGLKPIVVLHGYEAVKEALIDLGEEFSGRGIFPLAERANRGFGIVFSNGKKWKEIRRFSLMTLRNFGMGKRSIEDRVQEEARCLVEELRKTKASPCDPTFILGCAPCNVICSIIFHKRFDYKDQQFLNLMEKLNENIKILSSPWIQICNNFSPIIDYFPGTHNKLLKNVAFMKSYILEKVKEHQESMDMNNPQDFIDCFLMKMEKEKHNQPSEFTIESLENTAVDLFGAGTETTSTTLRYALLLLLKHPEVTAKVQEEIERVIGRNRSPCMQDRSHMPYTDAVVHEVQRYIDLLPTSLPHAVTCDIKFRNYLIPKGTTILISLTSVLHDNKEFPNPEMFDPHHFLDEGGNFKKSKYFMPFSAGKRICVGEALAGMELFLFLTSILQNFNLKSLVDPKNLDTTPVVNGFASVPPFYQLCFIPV
Test details: Time dependent inhibition of CYP2C9 in human liver microsomes assessed as enzyme remaining activity using cocktail of probe CYP as substrate at 50 uM
Format: ADME
Protocol conditions: probe cocktail of CYP probe substrates, read-out: Activity
Reported property: activity at 50 µM (%)

INSERT INTO assay_data (record_smiles, experimental_value) VALUES
  ('Cc1ccc(-n2c(=O)c(C(=O)Nc3ccc(Oc4ncnc5c4CCN(CC4CCN(C)CC4)C5)c(F)c3)cn(C3CCCC3)c2=O)nc1', 87);

###

Test details: Metabolic stability in human liver microsomes assessed as residual ratio at 0.1 uM for 30 mins
Format: ADME, Microsome
Protocol conditions: read-out: Stabilty
Reported property: remaining at 0.5 h, 0.1 µM (%)

INSERT INTO measurements (record_smiles, reported_property, experimental_value) VALUES
  ('Cc1ccc(-n2c(=O)c(C(=O)Nc3ccc(Oc4ncnc5c4CCN(CC4CCN(C)CC4)C5)c(F)c3)cn(C3CCCC3)c2=O)nc1', 'remaining at 0.5 h, 0.1 µM', 99);

###

System name: Tyrosine-protein kinase Mer (Homo sapiens)
Sequence (Q12866 whole entry): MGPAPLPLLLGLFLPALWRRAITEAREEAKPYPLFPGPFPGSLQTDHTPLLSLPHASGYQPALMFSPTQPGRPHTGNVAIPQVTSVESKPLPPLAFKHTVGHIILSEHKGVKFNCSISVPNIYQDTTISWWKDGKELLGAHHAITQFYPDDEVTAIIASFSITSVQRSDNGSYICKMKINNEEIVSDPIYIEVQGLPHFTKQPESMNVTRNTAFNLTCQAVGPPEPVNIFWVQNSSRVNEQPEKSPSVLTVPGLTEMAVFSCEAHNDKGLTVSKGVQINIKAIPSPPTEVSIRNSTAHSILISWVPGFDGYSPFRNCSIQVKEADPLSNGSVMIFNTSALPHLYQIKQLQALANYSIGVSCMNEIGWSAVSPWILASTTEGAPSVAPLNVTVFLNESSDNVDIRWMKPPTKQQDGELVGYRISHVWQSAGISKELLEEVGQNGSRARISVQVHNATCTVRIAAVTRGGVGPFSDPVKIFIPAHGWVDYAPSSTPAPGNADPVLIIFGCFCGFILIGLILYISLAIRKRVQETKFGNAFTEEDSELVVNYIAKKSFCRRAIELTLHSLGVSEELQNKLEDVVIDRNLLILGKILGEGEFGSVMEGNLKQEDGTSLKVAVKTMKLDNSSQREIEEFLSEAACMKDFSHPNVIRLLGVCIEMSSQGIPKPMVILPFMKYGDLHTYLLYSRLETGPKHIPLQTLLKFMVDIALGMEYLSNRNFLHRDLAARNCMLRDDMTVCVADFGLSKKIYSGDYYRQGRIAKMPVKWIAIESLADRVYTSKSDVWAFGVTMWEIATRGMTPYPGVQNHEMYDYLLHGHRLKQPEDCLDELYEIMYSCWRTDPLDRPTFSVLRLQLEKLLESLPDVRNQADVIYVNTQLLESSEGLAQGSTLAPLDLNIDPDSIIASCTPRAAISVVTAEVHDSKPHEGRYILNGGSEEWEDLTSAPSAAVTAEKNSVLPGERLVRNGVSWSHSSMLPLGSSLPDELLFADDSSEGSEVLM
Test details: Inhibition of Mer (unknown origin) by cell free assay
pIC50: −log10 of the molar value.
Reported property: pIC50

INSERT INTO results (record_smiles, reported_property, result_qualifier, experimental_value) VALUES
  ('CC(C)n1cc(C(=O)Nc2ccc(Oc3ncnc4c3CN(C(=O)CCN3CCCC3)C4)c(F)c2)c(=O)n(-c2ccc(F)cc2)c1=O', 'pIC50', '=', 6.80),
  ('CC(C)n1cc(C(=O)Nc2ccc(Oc3ncnc4c3CN(C(=O)CN3CCOCC3)C4)c(F)c2)c(=O)n(-c2ccc(F)cc2)c1=O', 'pIC50', '=', 6.64),
  ('CC(C)n1cc(C(=O)Nc2ccc(Oc3ncnc4c3CN(C(=O)C3CC3)C4)c(F)c2)c(=O)n(-c2ccc(F)cc2)c1=O', 'pIC50', '>', 8.39),
  ('CC(C)n1cc(C(=O)Nc2ccc(Oc3ncnc4c3CCN(C)C4)c(F)c2)c(=O)n(-c2ccc(F)cc2)c1=O', 'pIC50', '=', 6.28),
  ('CN1CCC(CN2CCc3c(ncnc3Oc3ccc(NC(=O)c4cn(CC5CCC5)c(=O)n(-c5ccc(F)cc5)c4=O)cc3F)C2)CC1', 'pIC50', '=', 7.06),
  ('CC(C)n1cc(C(=O)Nc2ccc(Oc3ncnc4c3CCN(C3CN(C)C3)C4)c(F)c2)c(=O)n(-c2ccc(F)cc2)c1=O', 'pIC50', '=', 7.57),
  ('CC(C)n1cc(C(=O)Nc2ccc(Oc3ncnc4c3CCN(C3CCN(C)CC3)C4)c(F)c2)c(=O)n(-c2ccc(F)cc2)c1=O', 'pIC50', '=', 7.51),
  ('CN1CCC(CN2CCc3c(ncnc3Oc3ccc(NC(=O)c4cn(CCF)c(=O)n(-c5ccc(F)cc5)c4=O)cc3F)C2)CC1', 'pIC50', '=', 6.82),
  ('CC(C)n1cc(C(=O)Nc2ccc(Oc3ncnc4c3CN(CC3CCOCC3)C4)c(F)c2)c(=O)n(-c2ccc(F)cc2)c1=O', 'pIC50', '=', 7.47),
  ('CC(C)n1cc(C(=O)Nc2ccc(Oc3ncnc4c3CN(C)CC4)c(F)c2)c(=O)n(-c2ccc(F)cc2)c1=O', 'pIC50', '=', 6.57),
  ('CC(C)n1cc(C(=O)Nc2ccc(Oc3ncnc4c3CN(C)C4)c(F)c2)c(=O)n(-c2ccc(F)cc2)c1=O', 'pIC50', '<', 6.00),
  ('CC(C)n1cc(C(=O)Nc2ccc(Oc3ncnc4c3CN(C(=O)CC3CCN(C)CC3)C4)c(F)c2)c(=O)n(-c2ccc(F)cc2)c1=O', 'pIC50', '>', 8.39);

###

Species: Homo sapiens
Test details: Ratio of IC50 for Mer (unknown origin) to IC50 for Axl (unknown origin)
The threshold is 20. Values of Ratio IC50 beneath it are tagged 1 (yes); values meeting or exceeding it are tagged 0 (no).

INSERT INTO assay_data (record_smiles, discrete_label) VALUES
  ('CC(C)n1cc(C(=O)Nc2ccc(Oc3ncnc4c3CN(C(=O)CN3CCOCC3)C4)c(F)c2)c(=O)n(-c2ccc(F)cc2)c1=O', '1 (yes)'),
  ('CN1CCC(CN2CCc3c(ncnc3Oc3ccc(NC(=O)c4cn(CCF)c(=O)n(-c5ccc(F)cc5)c4=O)cc3F)C2)CC1', '1 (yes)'),
  ('CN1CCC(CN2CCc3c(ncnc3Oc3ccc(NC(=O)c4cn(C5CCCC5)c(=O)n(-c5ccc(F)cc5)c4=O)cc3F)C2)CC1', '1 (yes)'),
  ('CC(C)n1cc(C(=O)Nc2ccc(Oc3ncnc4c3CN(C(=O)CCN3CCCC3)C4)c(F)c2)c(=O)n(-c2ccc(F)cc2)c1=O', '1 (yes)'),
  ('CC(C)n1cc(C(=O)Nc2ccc(Oc3ncnc4c3CN(C)C4)c(F)c2)c(=O)n(-c2ccc(F)cc2)c1=O', '0 (no)'),
  ('CN1CCC(CN2CCc3c(ncnc3Oc3ccc(NC(=O)c4cn(C5CC5)c(=O)n(-c5ccc(F)cc5)c4=O)cc3F)C2)CC1', '0 (no)'),
  ('CC(C)n1cc(C(=O)Nc2ccc(Oc3ncnc4c3CN(CC3CCN(C)CC3)C4)c(F)c2)c(=O)n(-c2ccc(F)cc2)c1=O', '1 (yes)'),
  ('CC(C)n1cc(C(=O)Nc2ccc(Oc3ncnc4c3CCN(C(=O)C3CCC3)C4)c(F)c2)c(=O)n(-c2ccc(F)cc2)c1=O', '0 (no)'),
  ('CC(C)n1cc(C(=O)Nc2ccc(Oc3ncnc4c3CCN(C3CN(C)C3)C4)c(F)c2)c(=O)n(-c2ccc(F)cc2)c1=O', '1 (yes)'),
  ('CC(C)n1cc(C(=O)Nc2ccc(Oc3ncnc4c3CN(C(=O)CC3CCN(C)CC3)C4)c(F)c2)c(=O)n(-c2ccc(F)cc2)c1=O', '1 (yes)'),
  ('CC(C)n1cc(C(=O)Nc2ccc(Oc3ncnc4c3CCN(CC(=O)N3CCN(C)CC3)C4)c(F)c2)c(=O)n(-c2ccc(F)cc2)c1=O', '0 (no)'),
  ('CC(C)n1cc(C(=O)Nc2ccc(Oc3ncnc4c3CC(=O)N4)c(F)c2)c(=O)n(-c2ccc(F)cc2)c1=O', '1 (yes)'),
  ('CC(C)n1cc(C(=O)Nc2ccc(Oc3ncnc4c3CCN(C(=O)CCN3CCCC3)C4)c(F)c2)c(=O)n(-c2ccc(F)cc2)c1=O', '0 (no)'),
  ('CC(C)n1cc(C(=O)Nc2ccc(Oc3ncnc4c3CN(CC3CCOCC3)C4)c(F)c2)c(=O)n(-c2ccc(F)cc2)c1=O', '1 (yes)'),
  ('Cc1ccc(-n2c(=O)c(C(=O)Nc3ccc(Oc4ncnc5c4CCN(CC4CCN(C)CC4)C5)c(F)c3)cn(CC3CC3)c2=O)nc1', '0 (no)'),
  ('CC(C)n1cc(C(=O)Nc2ccc(Oc3ncnc4c3CN(C(=O)C3CC3)C4)c(F)c2)c(=O)n(-c2ccc(F)cc2)c1=O', '1 (yes)'),
  ('CC(C)n1cc(C(=O)Nc2ccc(Oc3ncnc4c3CCN(CC3CN(C)C3)C4)c(F)c2)c(=O)n(-c2ccc(F)cc2)c1=O', '1 (yes)'),
  ('CC(C)n1cc(C(=O)Nc2ccc(Oc3ncnc4c3CCN(C(=O)C3CCN(C)CC3)C4)c(F)c2)c(=O)n(-c2ccc(F)cc2)c1=O', '0 (no)'),
  ('CN1CCC(CN2CCc3c(ncnc3Oc3ccc(NC(=O)c4cn(CC5CCC5)c(=O)n(-c5ccc(F)cc5)c4=O)cc3F)C2)CC1', '0 (no)'),
  ('CC(C)n1cc(C(=O)Nc2ccc(Oc3ncnc4c3CN(C(=O)CN3CCN(C)CC3)C4)c(F)c2)c(=O)n(-c2ccc(F)cc2)c1=O', '1 (yes)'),
  ('CC(C)n1cc(C(=O)Nc2ccc(Oc3ncnc4c3CCN(C(=O)CN3CCOCC3)C4)c(F)c2)c(=O)n(-c2ccc(F)cc2)c1=O', '1 (yes)');

###

Test details: Cmax in CAnN.Cg-Foxnlnu/CrlCrlj mouse plasma at 25 mg/kg, po single dose measured up to 24 hrs by liquid chromatography tandem mass spectrometry
Format: ADME, organism-based
Parameters: route oral, dose 25 mg/kg, time <=24
Reported property: Cmax (ng/mL)

INSERT INTO results (record_smiles, experimental_value) VALUES
  ('Cc1ccc(-n2c(=O)c(C(=O)Nc3ccc(Oc4ncnc5c4CCN(CC4CCN(C)CC4)C5)c(F)c3)cn(C3CCCC3)c2=O)nc1', 2340);
